# Test system: pancreatic exocrine function
# test details: 13C-dipeptide breath test in normal rats (Δ13C in exhaled CO2 after oral administration)
# Assay type: in vivo, rat
# test context: Table 1; overnight-fasted Wistar rats, oral 35 μmol/kg (5 ml/kg); exhaled CO2
The compounds listed here are annotated with their Δ^13C(‰) peak value.
readout type: Δ^13C(‰) peak value

[[record]]
compound = "C[C@H](NC(=O)[C@H](CCCNC(=N)N)NC(=O)c1ccccc1)[13C](=O)O [Bz-Arg-(^13C-Ala), reference compound]"
readout_type = "Δ^13C(‰) peak value"
value_reported = "42.83 ‰"

[[record]]
compound = "C[C@H](NC(=O)[C@H](CO)NC(=O)c1ccccc1)[13C](=O)[O-].[Na+] [Na salt of Bz-Ser-(^13C-Ala), N-benzoyl-L-seryl-^13C-L-alanine]"
readout_type = "Δ^13C(‰) peak value"
value_reported = "47.48 ‰"

[[record]]
compound = "CSCC[C@H](NC(=O)c1ccccc1)C(=O)N[C@@H](C)[13C](=O)[O-].[Na+] [Na salt of Bz-Met-(^13C-Ala), N-benzoyl-L-methionyl-^13C-L-alanine]"
readout_type = "Δ^13C(‰) peak value"
value_reported = "48.88 ‰"

[[record]]
compound = "CC(C)C[C@H](NC(=O)c1ccccc1)C(=O)N[C@@H](C)[13C](=O)[O-].[Na+] [Na salt of Bz-Leu-(^13C-Ala), reference compound]"
readout_type = "Δ^13C(‰) peak value"
value_reported = "42.77 ‰"

[[record]]
compound = "C[C@H](NC(=O)[C@H](CCCCN)NC(=O)c1ccccc1)[13C](=O)O [Bz-Lys-(^13C-Ala), reference compound]"
readout_type = "Δ^13C(‰) peak value"
value_reported = "38.57 ‰"

